# System: Endothelial cells (HUVEC)
# Experiment description: Neovessels formation inhibition (capillary tube formation on Matrigel)
# Type: cell-based
# Test parameters: Homo sapiens; HUVEC on Matrigel, compounds overnight; read-out: Neovessels Formation Inhibition Number of Branch Junctions IC50
Structures can show the parent of a compound that is named as a salt.
Endpoint name: IC50 (nM)
Entry rule: numbers only, all in nM.

Consider the worked cases shown below.
CCOc1ccc2c(C(=O)c3cc(OC)c(OC)c(OC)c3)cncc2c1NC(=O)CN [Compound 112]; 16.4
CCOc1ccc2c(C(=O)c3cc(OC)c(OC)c(OC)c3)cncc2c1OC(C)=O [Compound 96]; 5.07
CCCOc1c(OC)cc(C(=O)c2cncc3c(OC(C)=O)c(OCC)ccc23)cc1OC [Compound 65]; 2.88
CC(=O)O[C@H]1C(=O)[C@@]2(C)[C@H]([C@H](OC(=O)c3ccccc3)[C@]3(O)C[C@H](OC(=O)[C@H](O)[C@@H](NC(=O)c4ccccc4)c4ccccc4)C(C)=C1C3(C)C)[C@]1(OC(C)=O)CO[C@@H]1C[C@@H]2O [Taxol, reference compound]; 0.79
CCOc1ccc2c(C(=O)c3cc(OC)c(OCC)c(OC)c3)cncc2c1O [Compound 56, hydrochloride]; 10.7
CCOc1ccc2c(Cc3cc(OC)c(OC)c(OC)c3)cncc2c1NS(N)(=O)=O [Compound 8, hydrochloride]; 100

Now for another entry.
Per the records, this compound ( CCCOc1c(OC)cc(Cc2cncc3c(O)c(OCC)ccc23)cc1OC [Compound 19, hydrochloride] ) has IC50 equal to 14.4

---

# System: K562 cell line
# Experiment description: MTT assay: cytotoxicity against the K562 cell line
# Format: cell-based
# Test parameters: Homo sapiens, K562 cells, 72 h, growth inhibition
pIC50: −log10 of the molar value. Structures can show the parent of a compound that is named as a salt.
Is pIC50 at least 7? Then MET. If not, NOT MET.

As a guide, the following entries are already answered.
CCCOc1c(OC)cc(Cc2cncc3c(N)c(OCC)ccc23)cc1OC [Compound 64, dihydrochloride]; MET
CCOc1ccc2c(C(=O)c3cc(OC)c(OC)c(OC)c3)cncc2c1OC(C)=O; MET

Would you say COc1ccc(/C=C\c2cc(OC)c(OC)c(OC)c2)cc1NC(=O)[C@@H](N)CO [AVE8062, reference compound] shows pIC50 at minimum 7?
MET

Would you say CC[C@]1(O)C[C@@H]2CN(CCc3c([nH]c4ccccc34)[C@@](C(=O)OC)(c3cc4c(cc3OC)N(C)[C@H]3[C@@](O)(C(=O)OC)[C@H](OC(C)=O)[C@]5(CC)C=CCN6CC[C@]43[C@@H]65)C2)C1 [Vinblastine, reference compound] shows pIC50 at minimum 7?
MET

Would you say CCOc1ccc2c(C(=S)c3cc(OC)c(OC)c(OC)c3)cncc2c1 [Compound 42, hydrochloride] shows pIC50 at minimum 7?
MET

Would you say CCOc1ccc2c(Cc3cc(OC)c(OCC)c([N+](=O)[O-])c3)cncc2c1O [Compound 74, hydrochloride] shows pIC50 at minimum 7?
NOT MET

Would you say CCCOc1c(OC)cc(C(=O)c2cncc3c(O)c(OCC)ccc23)cc1OC [Compound 67, hydrochloride] shows pIC50 at minimum 7?
MET

Would you say CCOc1ccc2c(C(=O)c3cc(OC)c(OCC)c(OC)c3)cncc2c1O [Compound 56, hydrochloride] shows pIC50 at minimum 7?
MET

Would you say CCOc1ccc2c(C(=O)c3cc(OC)c(OCC)c(OC)c3)cncc2c1OCc1ccccc1 shows pIC50 at minimum 7?
NOT MET
